Assay: Stability after storing different crystalline forms of Tigecycline at 80° C. for 7 days (4-Epi-Tigecycline and total impurities)
Format: physicochemical
Details: ambient conditions, before storage; depends on purity of the starting material; listed as VI
Description: A suitable crystalline form of Tigecycline for formulating an anti-infective medicament first of all is required to be thermodynamic stable, in order to avoid formation of degradation products.

compound | 4-Epi-Tigecycline ambient conditions (%)
CN(C)c1cc(NC(=O)CNC(C)(C)C)c(O)c2c1C[C@H]1C[C@H]3[C@H](N(C)C)C(O)=C(C(N)=O)C(=O)[C@@]3(O)C(O)=C1C2=O [Form VI, Tigecycline] | 0.17

---

Assay: Stability after storing different crystalline forms of Tigecycline at 80° C. for 7 days (4-Epi-Tigecycline and total impurities)
Type: physicochemical
Conditions: ambient conditions, before storage; depends on purity of the starting material; listed as I
parameterMeasured: Total impurities ambient conditions (%)

molecule | resultValue
CN(C)c1cc(NC(=O)CNC(C)(C)C)c(O)c2c1C[C@H]1C[C@H]3[C@H](N(C)C)C(O)=C(C(N)=O)C(=O)[C@@]3(O)C(O)=C1C2=O [Form I, Tigecycline] | 0.75

---

Test: Stability after storing different crystalline forms of Tigecycline at 80° C. for 7 days (4-Epi-Tigecycline and total impurities)
Format: physicochemical
Settings: ambient conditions, before storage; depends on purity of the starting material; listed as V
Text: A suitable crystalline form of Tigecycline for formulating an anti-infective medicament first of all is required to be thermodynamic stable, in order to avoid formation of degradation products.
parameterMeasured: 4-Epi-Tigecycline ambient conditions

compound | parameterMeasured | resultValue
CN(C)c1cc(NC(=O)CNC(C)(C)C)c(O)c2c1C[C@H]1C[C@H]3[C@H](N(C)C)C(O)=C(C(N)=O)C(=O)[C@@]3(O)C(O)=C1C2=O [Form V, Tigecycline] | 4-Epi-Tigecycline ambient conditions | < 0.05%

---

Assay: Stability after storing different crystalline forms of Tigecycline at 80° C. for 7 days (4-Epi-Tigecycline and total impurities)
Format: physicochemical
Settings: ambient conditions, before storage; depends on purity of the starting material; listed as I
parameterMeasured: 4-Epi-Tigecycline ambient conditions (%)

compound | readoutUnits | resultValue
CN(C)c1cc(NC(=O)CNC(C)(C)C)c(O)c2c1C[C@H]1C[C@H]3[C@H](N(C)C)C(O)=C(C(N)=O)C(=O)[C@@]3(O)C(O)=C1C2=O [Form I, Tigecycline] | % | 0.36

---

Assay: Stability after storing different crystalline forms of Tigecycline at 80° C. for 7 days (4-Epi-Tigecycline and total impurities)
Assay type: physicochemical
Settings: ambient conditions, before storage; depends on purity of the starting material; listed as IV
Description: A suitable crystalline form of Tigecycline for formulating an anti-infective medicament first of all is required to be thermodynamic stable, in order to avoid formation of degradation products.

molecule | Total impurities ambient conditions, %
CN(C)c1cc(NC(=O)CNC(C)(C)C)c(O)c2c1C[C@H]1C[C@H]3[C@H](N(C)C)C(O)=C(C(N)=O)C(=O)[C@@]3(O)C(O)=C1C2=O [Form IV, Tigecycline] | 0.4

---

Listed here: items and their measured Solubility, Concentration.
Conditions: 30 min
parameterMeasured: Solubility, Concentration (mg/mL)

molecule | parameterMeasured | readoutUnits | resultValue
CN(C)c1cc(NC(=O)CNC(C)(C)C)c(O)c2c1C[C@H]1C[C@H]3[C@H](N(C)C)C(O)=C(C(N)=O)C(=O)[C@@]3(O)C(O)=C1C2=O [Form VIII, Tigecycline] | Solubility, Concentration | mg/mL | 141
CN(C)c1cc(NC(=O)CNC(C)(C)C)c(O)c2c1C[C@H]1C[C@H]3[C@H](N(C)C)C(O)=C(C(N)=O)C(=O)[C@@]3(O)C(O)=C1C2=O [Form VI, Tigecycline] | Solubility, Concentration | mg/mL | 76
CN(C)c1cc(NC(=O)CNC(C)(C)C)c(O)c2c1C[C@H]1C[C@H]3[C@H](N(C)C)C(O)=C(C(N)=O)C(=O)[C@@]3(O)C(O)=C1C2=O [Form III, Tigecycline] | Solubility, Concentration | mg/mL | 174
CN(C)c1cc(NC(=O)CNC(C)(C)C)c(O)c2c1C[C@H]1C[C@H]3[C@H](N(C)C)C(O)=C(C(N)=O)C(=O)[C@@]3(O)C(O)=C1C2=O [Form V, Tigecycline] | Solubility, Concentration | mg/mL | 134
CN(C)c1cc(NC(=O)CNC(C)(C)C)c(O)c2c1C[C@H]1C[C@H]3[C@H](N(C)C)C(O)=C(C(N)=O)C(=O)[C@@]3(O)C(O)=C1C2=O [Form IV, Tigecycline] | Solubility, Concentration | mg/mL | 183
CN(C)c1cc(NC(=O)CNC(C)(C)C)c(O)c2c1C[C@H]1C[C@H]3[C@H](N(C)C)C(O)=C(C(N)=O)C(=O)[C@@]3(O)C(O)=C1C2=O [Form I, Tigecycline] | Solubility, Concentration | mg/mL | 185
CN(C)c1cc(NC(=O)CNC(C)(C)C)c(O)c2c1C[C@H]1C[C@H]3[C@H](N(C)C)C(O)=C(C(N)=O)C(=O)[C@@]3(O)C(O)=C1C2=O [Form II, Tigecycline] | Solubility, Concentration | mg/mL | 177

---

Experiment: Stability after storing different crystalline forms of Tigecycline at 80° C. for 7 days (4-Epi-Tigecycline and total impurities)
Assay type: physicochemical
Conditions: ambient conditions, before storage; depends on purity of the starting material; listed as III

compound | readoutUnits | Total impurities ambient conditions
CN(C)c1cc(NC(=O)CNC(C)(C)C)c(O)c2c1C[C@H]1C[C@H]3[C@H](N(C)C)C(O)=C(C(N)=O)C(=O)[C@@]3(O)C(O)=C1C2=O [Form III, Tigecycline] | % | 0.16

---

Experiment: Stability after storing different crystalline forms of Tigecycline at 80° C. for 7 days (4-Epi-Tigecycline and total impurities)
Format: physicochemical
Settings: ambient conditions, before storage; depends on purity of the starting material; listed as III
Excerpt: A suitable crystalline form of Tigecycline for formulating an anti-infective medicament first of all is required to be thermodynamic stable, in order to avoid formation of degradation products.

molecule | 4-Epi-Tigecycline ambient conditions (%)
CN(C)c1cc(NC(=O)CNC(C)(C)C)c(O)c2c1C[C@H]1C[C@H]3[C@H](N(C)C)C(O)=C(C(N)=O)C(=O)[C@@]3(O)C(O)=C1C2=O [Form III, Tigecycline] | 0.16

---

Assay: Stability after storing different crystalline forms of Tigecycline at 80° C. for 7 days (4-Epi-Tigecycline and total impurities)
Assay type: physicochemical
Settings: ambient conditions, before storage; depends on purity of the starting material; listed as VIII

compound | Total impurities ambient conditions / %
CN(C)c1cc(NC(=O)CNC(C)(C)C)c(O)c2c1C[C@H]1C[C@H]3[C@H](N(C)C)C(O)=C(C(N)=O)C(=O)[C@@]3(O)C(O)=C1C2=O [Form VIII, Tigecycline] | 0.43

---

Test: Stability after storing different crystalline forms of Tigecycline at 80° C. for 7 days (4-Epi-Tigecycline and total impurities)
Assay type: physicochemical
Details: ambient conditions, before storage; depends on purity of the starting material; listed as II
parameterMeasured: 4-Epi-Tigecycline ambient conditions (%)

compound | readoutUnits | resultValue
CN(C)c1cc(NC(=O)CNC(C)(C)C)c(O)c2c1C[C@H]1C[C@H]3[C@H](N(C)C)C(O)=C(C(N)=O)C(=O)[C@@]3(O)C(O)=C1C2=O [Form II, Tigecycline] | % | 1.04

---

Experiment: Stability after storing different crystalline forms of Tigecycline at 80° C. for 7 days (4-Epi-Tigecycline and total impurities)
Format: physicochemical
Details: ambient conditions, before storage; depends on purity of the starting material; listed as VI
parameterMeasured: Total impurities ambient conditions (%)

compound | parameterMeasured | resultValue
CN(C)c1cc(NC(=O)CNC(C)(C)C)c(O)c2c1C[C@H]1C[C@H]3[C@H](N(C)C)C(O)=C(C(N)=O)C(=O)[C@@]3(O)C(O)=C1C2=O [Form VI, Tigecycline] | Total impurities ambient conditions | 0.24

---

Experiment: Stability after storing different crystalline forms of Tigecycline at 80° C. for 7 days (4-Epi-Tigecycline and total impurities)
Assay type: physicochemical
Conditions: ambient conditions, before storage; depends on purity of the starting material; listed as II
parameterMeasured: Total impurities ambient conditions (%)

compound | resultValue
CN(C)c1cc(NC(=O)CNC(C)(C)C)c(O)c2c1C[C@H]1C[C@H]3[C@H](N(C)C)C(O)=C(C(N)=O)C(=O)[C@@]3(O)C(O)=C1C2=O [Form II, Tigecycline] | 1.6
